Test system: EKVX NSCLC
assay_notes: NCI-60 one-dose screen, 48 h (100 = growth as untreated, 0 = no growth, -100 = all killed)
test_parameters: 10 µM
Compounds without any hit were thinned out: in the full panel of roughly 83,000, 20% have a hit.
property_measured: growth (%)
Quick reminder: number only, in %, skip the unit.

// worked examples, growth included
In [3]: df
Out[3]:
                                   compound  measured_target  recorded_value
0                  NC1=CC(=O)C(=O)c2cccnc21       EKVX NSCLC            98.3
1                                    IC(I)I       EKVX NSCLC             102
2  CCCCCCCCCCCCCCCCCC[n+]1ccc2c(C)c3c(c(C)c2c1)c1cc(O)ccc1n3CC       EKVX NSCLC            19.5
3  CC(C)(C)OC(=O)CN1CCc2c(sc3ncnc(N/N=C/c4cccc5ccccc45)c23)C1       EKVX NSCLC            2.48
4  COc1cc2c(cc1NC(=O)C(F)(F)F)-c1ccc(NC(=O)C(F)(F)F)cc1C2       EKVX NSCLC             104
5  CC(=O)OC1C=CC(OC(C)=O)O1 (stereo unspecified)       EKVX NSCLC            99.3
6  NC(CSC(c1ccccc1)(c1ccccc1)c1cccc2ccccc12)C(=O)O (stereo unspecified)       EKVX NSCLC              88
7  COc1cc(-c2nn(-c3cccc(NC(=O)NCCNC(=O)c4ccccc4)c3)cc2-c2ccncc2)ccc1Cl       EKVX NSCLC            34.2

# query: growth of entry C[n+]1c2ccccc2nc2ccccc21 54.9

# query: growth of entry COc1cc2cc(Oc3ccc(NC(=O)Nc4ccc(C(F)(F)F)cc4)cc3)c(C)nc2cc1OC 75.7

# query: growth of entry CCOC(=O)c1cc(C(=O)c2ccc(Cl)cc2)n2ccc(-c3cc[n+](CC(=O)c4ccc(OC)cc4)cc3)cc12 96.4

---

Listed here are compounds together with their documented growth.
System: UO-31 renal
assay_notes: NCI-60 one-dose screen, 48 h (100 = growth as untreated, 0 = no growth, -100 = all killed)
test_parameters: 10 µM
Description: Growth inhibition of the UO-31 human tumor cell line is measured as a screen for anti-cancer activity. Cells are grown in 96 well plates and exposed to the test compound for 48 hours. Compounds are tested at a single concentration, which is 10^-5 M for most compounds. The reported endpoint is percent growth (GI% or GIPRCNT), where numbers from 0 - 100% represent growth inhibition, and numbers from -100% - 0 represent cell death. For example, a value of 40 represents 60% growth inhibition. […]
The panel holds about 83,000 compounds, 20% with a hit somewhere; the sample as a whole holds those more often.
Quick reminder: number only, in %, skip the unit.

// worked examples, growth included
compound	property_measured	measurement_unit	recorded_value
O=C(Nc1cccc2c1CCCC2)c1cc2ccccc2cc1O	growth	%	17.5
c1cnc2[nH]cc(-c3nc(-c4ccsc4)cs3)c2c1	growth	%	62.7
COc1ccc(C(c2ccc(OCCN(C)C)cc2)c2cc3ccccc3c3ccccc23)cc1 (centres undefined)	growth	%	72.2
Cc1ccc(NCCN(C)CC(C)O)c2c(=O)c3ccccc3sc12 (centres undefined)	growth	%	41.5

# query: growth of entry CC(=O)OC/C=C(/C)C[P+](c1ccccc1)(c1ccccc1)c1ccccc1 61.1

---

Tested on: RPMI-8226 leukemia
assay_notes: NCI-60 one-dose screen, 48 h
test_parameters: 10 µM
Compounds without any hit were thinned out: in the full panel of roughly 83,000, 20% have a hit. The source made the active and inactive calls. How the source made its calls: active means growth percent below 10; inactive means the rest.
In this exercise, the only acceptable responses are active, inactive

Per the records of this test, what outcome belongs to COc1ccccc1/C=N\N/C(N)=N\N=C\c1ccccc1OC ? active

Per the records of this test, what outcome belongs to OCC1OC(n2ccc3c(NO)ncnc32)C(O)C1O (stereo unspecified) ? active

Per the records of this test, what outcome belongs to CN(C)CCOc1cccc(NC2=C(Cl)C(=O)C(Nc3cccc(OCCN(C)C)c3)=C(Cl)C2=O)c1 ? active

Per the records of this test, what outcome belongs to CN1CCN(CCC(=O)Nc2cccc(-n3cc(-c4ccncc4)c(-c4ccc(Cl)c(O)c4)n3)c2)CC1 ? inactive

Per the records of this test, what outcome belongs to Cc1ccc(NCCNCC(C)(C)O)c2c(=O)c3ccc(Cl)cc3sc12 ? active

Per the records of this test, what outcome belongs to COc1cc2c(cc1NC(=O)C(F)(F)F)-c1ccc(NC(=O)C(F)(F)F)cc1C2 ? inactive

Per the records of this test, what outcome belongs to CNC(=O)c1cn(C2CC2)c2cc(N3CCN(C(=O)c4cc(OC)c(OC)c(OC)c4)CC3)c(F)cc2c1=O ? inactive

Per the records of this test, what outcome belongs to C[C@H]1[C@H](OC(=O)CCC(=O)O)O[C@@H]2O[C@]3(C)CC[C@H]4[C@H](C)CC[C@@H]1[C@@]24OO3 ? inactive

---

Test system: SW-620 colon
assay_notes: NCI-60 one-dose screen, 48 h (100 = growth as untreated, 0 = no growth, -100 = all killed)
test_parameters: 10 µM
About 83,000 compounds went through this panel and 20% of them were active in at least one assay; those are over-represented in the sample as a whole.
Listed here are molecules together with their documented growth.
Quick reminder: number only, in %, skip the unit.

>>> df
                                   molecule  recorded_value
0  CC(=O)OC1CC2C(C)(C)CCC[C@]2(C)C2=C1C(O)=C(C(C)C)C(=O)C2=O (stereo not given in full)             -51
1      c1cnc2[nH]cc(-c3nc(-c4ccsc4)cs3)c2c1             111
2  Oc1ccc(/C=N/N=C2c3ccccc3-c3ccccc32)c(O)c1            75.4
3  COc1ccc(Nc2cnc3cc(NS(=O)(=O)c4ccc(C)cc4)ccc3n2)cc1            59.9
4  COc1cc(CNC(=O)C2CSC3(C)c4ccccc4C(=O)N23)cc(OC)c1OC (stereo not given)             101

Hello, I am looking for reported growth with SW-620 colon for CN1CCN(CCC(=O)Nc2cccc(-n3cc(-c4ccncc4)c(-c4ccc(Cl)c(O)c4)n3)c2)CC1 . Could you help? 20.9

Hello, I am looking for reported growth with SW-620 colon for CC(C)(C)OC(=O)CN1CCc2c(sc3ncnc(N/N=C/c4cccc5ccccc45)c23)C1 . Could you help? 33.9

---

Listed here are compounds together with their documented growth.
System: 786-0 renal
assay_notes: NCI-60 one-dose screen, 48 h (100 = growth as untreated, 0 = no growth, -100 = all killed)
test_parameters: 10 µM
Compounds without any hit were thinned out: in the full panel of roughly 83,000, 20% have a hit. Calls of active or inactive are those of the source. How the source made its calls: active means growth percent below 10; inactive means the rest.

compound	recorded_value
COC(=O)CC[C@@H](C)[C@H]1CC[C@H]2[C@@H]3CC[C@@H]4C[C@H](O)CC[C@]4(C)[C@H]3C[C@H](O)[C@]12C	107% (inactive)

# query: growth of entry OC(CNc1ccnc2cc(Cl)ccc12)CNC1CCCCC1 (stereo not drawn) 87.9% (inactive)

# query: growth of entry CC[C@H]1OC(=O)[C@H](C)[C@@H](O[C@H]2C[C@@](C)(OC)[C@@H](O)[C@H](C)O2)[C@H](C)[C@@H](O[C@@H]2O[C@H](C)C[C@H](N(C)C)[C@H]2O)[C@](C)(OC)C/C(C)=C2/O[C@@]1(C)C=C2C 72% (inactive)

---

System: T-47D breast
assay_notes: NCI-60 one-dose screen, 48 h (100 = growth as untreated, 0 = no growth, -100 = all killed)
test_parameters: 10 µM
The panel holds about 83,000 compounds, 20% with a hit somewhere; the sample as a whole holds those more often.
property_measured: growth (%)
Quick reminder: number only, in %, skip the unit.

// worked examples, growth included
compound	measured_target	growth, %
CN(C)CCN(Cc1ccccc1)c1ccc2ccccc2n1	T-47D breast	86.3
CCCCN(CCCC)C(=O)[C@H](CC)[C@@H]1CC[C@@H](C)[C@@H]([C@H](C)[C@@H](O)[C@@H](C)C(=O)[C@H](CC)C2O[C@]3(C=CC(=O)[C@]4(CC[C@@](C)([C@H]5CC[C@](O)(CC)[C@H](C)O5)O4)O3)[C@H](C)C[C@@H]2C)O1 (stereo partly drawn)	T-47D breast	20.7
COc1ccc(C(=O)COc2cccc(/C=C3\Cc4ccccc4C3=O)c2)cc1	T-47D breast	73.8

# query: growth of entry Clc1nc2ccc(Br)cc2cc1-c1nc2ccccc2[nH]1 104

# query: growth of entry COc1ccc(/C(=N\N)C(=O)c2ccccc2)cc1 (tested in a mixture with another compound) 83.7

# query: growth of entry C[C@]12CC[C@@H]3c4ccc(O)cc4CC[C@H]3[C@@H]1CC[C@@H]2NS(=O)(=O)c1ccc(C(F)(F)F)cc1 25

# query: growth of entry CCCCc1oc2ccccc2c1C(=O)c1cc(I)c(OCCN(CC)CC)c(I)c1 7

# query: growth of entry CCOC(=O)CSc1nc(-c2cc(OC)ccc2OC)cc(-c2ccc(OC)cc2)c1C#N 65.6

Entry source: PubChem BioAssay (NCI)
